# system name: GPR6 receptor (Homo sapiens)
# Construct: expressed in transfected cells
# Sequence (P46095 whole entry): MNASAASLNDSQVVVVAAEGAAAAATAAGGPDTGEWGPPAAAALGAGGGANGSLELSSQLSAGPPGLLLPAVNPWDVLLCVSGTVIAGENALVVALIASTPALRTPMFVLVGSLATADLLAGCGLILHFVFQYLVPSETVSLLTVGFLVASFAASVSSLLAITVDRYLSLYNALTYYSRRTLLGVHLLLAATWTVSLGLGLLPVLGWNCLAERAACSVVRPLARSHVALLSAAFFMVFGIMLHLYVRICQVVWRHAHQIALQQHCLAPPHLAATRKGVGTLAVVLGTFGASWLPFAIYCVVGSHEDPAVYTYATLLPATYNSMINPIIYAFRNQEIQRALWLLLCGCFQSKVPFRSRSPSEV
# procedure text: Inhibition of cAMP Activity of GPR6 In Vitro Assay (CHO-K1 cells, HTRF cAMP)
# Assay type: cell-based
# reported conditions: compounds of Compound Table 1; inhibition of constitutive cAMP activity of GPR6 expressed in CHO-K1 cells; approximate IC50; read-out: IC50
pIC50: −log10 of the molar value.
Could you label it t if measured pIC50 is 6 or higher, and f otherwise?

Worked examples follow.
Clc1ccc(NC2CCN(c3nc4ccccc4nc3NC3CC3)CC2)cc1 = t
COCCCNc1nc2ccccc2nc1N1CCN(Cc2cc(Cl)ccc2Cl)CC1 = f
c1ccc2nc(N3CCN(Cc4ccncc4)CC3)c(NC3CC3)nc2c1 = f
COc1ccc(OC2CCN(c3nc4c(C(=O)N(C)C)nccc4nc3NC3CC3)CC2)c(F)c1 = t
Clc1cccc(CN2CCN(c3nc4ccccc4nc3Nc3ccc(Br)cc3)CC2)c1 = f

I'd appreciate it if you could say whether "c1ccc(CN2CCN(c3nc4ccccc4nc3NC3CC3)CC2)nc1" has pIC50 at least equal to 6. f

Is reported pIC50 greater than or equal to 6 here: "CC(C)Nc1nc2cnncc2nc1N1CCC(Oc2ccc(F)cc2F)CC1" t

* * *

# system name: GPR6 receptor (Homo sapiens)
# Construct: expressed in transfected cells
# procedure text: Inhibition of cAMP Activity of GPR6 In Vitro Assay (CHO-K1 cells, HTRF cAMP)
# Format: cell-based
# reported conditions: compounds of Compound Table 2; inhibition of constitutive cAMP activity of GPR6 expressed in CHO-K1 cells; approximate IC50; read-out: IC50
In this section we review reported IC50 values for a set of molecules.
Use µM as the unit, but write only the number.

Solved entries:
CC1CN(C(=O)c2cc(Cl)ccc2Cl)CCN1c1nc2ccccc2nc1NC1CC1 (centres unmarked) [Compound Table 2: Cpd 8] = 79.6
Cc1cc2nc(NC3CC3)c(C3CCN(Cc4ccc(F)cc4F)CC3)nc2cn1 [Compound Table 2: Cpd 6] = 0.53

Which IC50 is listed for CC(C)C1CN(c2nc3ccccc3nc2NC2CC2)CCN1Cc1cc(Cl)ccc1Cl (centres unmarked) [Compound Table 2: Cpd 9] ? 17.7

I would be grateful if you could share the reported IC50 for N#Cc1ccc2nc(NC3CC3)c(C3CCN(Cc4cc(Cl)ccc4Cl)CC3)nc2c1 [Compound Table 2: Cpd 3] . 0.84

Bench note: what IC50 did CC1CN(Cc2cc(Cl)ccc2Cl)CCN1c1nc2ccccc2nc1NC1CC1 (centres unmarked) [Compound Table 2: Cpd 7] show? 6.64

* * *

# Tested on: haloperidol-induced catalepsy
# procedure text: Haloperidol-Induced Catalepsy, in vivo rodent Parkinson's disease model (mice)
# reported conditions: mouse; 30 mpk ip; 30 min after dosing with haloperidol
Recorded % reversal 30 min for the following molecules
Response body: numeric value in %, unit text excluded.

Examples from the recorded data:
Clc1ccc(Cl)c(CN2CCN(c3nc4ccccc4nc3NC3CC3)CC2)c1.O=C(O)C(F)(F)F = 48.1
N#Cc1ccc2nc(NC3CC3)c(N3CCN(Cc4cc(Cl)ccc4Cl)CC3)nc2c1 = 27.4
Clc1cccc(Cl)c1CN1CCN(c2nc3ccccc3nc2NC2CC2)CC1.O=C(O)C(F)(F)F = 40.4

For the next question, use this molecule.
Record request: % reversal 30 min value, item "Clc1cccc(CN2CCN(c3nc4ccccc4nc3Nc3cccnc3)CC2)c1.O=C(O)C(F)(F)F" 13.6
